# Pre-emergence herbicidal activity, TRAZW (damage score 0-5) per entry
System: Triticum aestivium (TRZAW)
Assay: B1 Pre-emergence herbicidal activity
Type: in vivo
Design: key: 5=total damage to plant; 0=no damage to plant
Details: pre-emergence application, rate 1000 g/ha, evaluated after 13 days

These recorded examples may help you get a feel for the data.
compound: O=C(c1ccccc1)N(Cc1ccc(Cl)cc1)c1ccc(-c2cncc(F)c2)nc1C(F)(F)F [Compound C77]
result: 0
--
compound: O=C(c1ccccc1)N(CC1CC1)c1ccc(-c2cncc(F)c2)nc1C(F)(F)F [Compound C103]
result: 0
--
compound: C=CCN(C(=O)COC)c1ccc(-c2cncc(F)c2)nc1C(F)(F)F [Compound C63]
result: 0
--
compound: CCC(=O)N(COCC(C)(C)C)c1ccc(-c2cncc(F)c2)nc1C(F)(F)F [Compound C99]
result: 0
--
compound: CCN(CC)CCCN(C(=O)c1ccccc1)c1ccc(-c2cncc(F)c2)nc1C(F)(F)F [Compound C74]
result: 0
--
compound: CC(C)C(=O)N(COCC(C)(C)C)c1ccc(-c2cncc(F)c2)nc1C(F)(F)F [Compound C89]
result: 0
--
compound: O=C(CC1CCCCC1)Nc1ccc(-c2cncc(F)c2)nc1C(F)(F)F [Compound C19]
result: 0

Proceed to the following item.
Query block: # get_value(readout= Pre-emergence herbicidal activity, TRAZW (damage score 0-5), system= Triticum aestivium (TRZAW)) for O=CNc1ccc(-c2cncc(F)c2)nc1C(F)(F)F [Compound C112]
Result block: 0
